- target.or.system: purified DHFR of strain 157/4696 of Staphylococcus aureus (Staphylococcus aureus, UniProt P13955)
- Sequence (P13955 whole entry): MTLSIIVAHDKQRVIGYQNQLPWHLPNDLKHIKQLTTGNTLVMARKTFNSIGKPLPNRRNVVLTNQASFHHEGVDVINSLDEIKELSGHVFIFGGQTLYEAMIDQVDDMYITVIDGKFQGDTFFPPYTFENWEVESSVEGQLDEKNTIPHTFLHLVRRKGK
- protocol.details: biochemical
pIC50: −log10 of the molar value.
Parameter: pIC50. Scope: all listed entries.
experimental.readout: pIC50

>  <molecule>
CCOc1cc(Cc2cnc(N)nc2N)cc(OCC)c1-c1ccc(NC)cc1 [Example 04-ab]

>  <experimental.result>
5.85

$$$$
>  <molecule>
CCOc1cc(Cc2cnc(N)nc2N)cc(OCC(C)(C)CCC#N)c1-c1ccc(O)cc1 [Example 48-]

>  <experimental.result>
6.12

$$$$
>  <molecule>
CCOc1cc(Cc2cnc(N)nc2N)cc(OS(=O)(=O)CC2CCCO2)c1-c1ccc(N)c(C)c1 (centres unmarked) [Example 42-c]

>  <experimental.result>
6.52

$$$$
>  <molecule>
CCOc1cc(Cc2cnc(N)nc2N)cc(OS(=O)(=O)C(C)C)c1-c1ccc(N)c(F)c1 [Example 33-b]

>  <experimental.result>
6.59

$$$$
>  <molecule>
CCOc1cc(Cc2cnc(N)nc2N)cc(OCC)c1-c1ccc2c(c1)OCCO2 [Example 02-x]

>  <experimental.result>
5.63

$$$$
>  <molecule>
CCOc1cc(Cc2cnc(N)nc2N)cc(OS(=O)(=O)N2CCCC2)c1-c1ccc(NC)cc1 [Example 26-e]

>  <experimental.result>
6.89

$$$$
>  <molecule>
CCOc1cc(Cc2cnc(N)nc2N)cc(OS(=O)(=O)N2CCCCC2)c1-c1cccc(N)c1 [Example 19-b]

>  <experimental.result>
6.89

$$$$
>  <molecule>
CCOc1cc(Cc2cnc(N)nc2N)cc(OS(=O)(=O)N(C)CC)c1-c1ccc(NC)cc1 [Example 26-b]

>  <experimental.result>
6.77

$$$$

* * *

Parameter: IC50. Scope: all listed entries.
- target.or.system: purified DHFR of strain 157/4696 of Staphylococcus aureus (Staphylococcus aureus, UniProt P13955)
- protocol.details: biochemical
experimental.readout: IC50 (nM)

>  <given.smiles>
CCOc1cc(Cc2cnc(N)nc2N)cc(OS(=O)(=O)CC(C)C)c1-c1ccc(OCCOC)cc1

>  <experimental.result>
380

$$$$
>  <given.smiles>
CCOc1cc(Cc2cnc(N)nc2N)cc(OCC(C)C)c1-c1ccc(OC)cc1

>  <experimental.result>
1600

$$$$
>  <given.smiles>
CCOc1cc(Cc2cnc(N)nc2N)cc(OCC)c1-c1ccc(OC)c(C)c1

>  <experimental.result>
1400

$$$$
>  <given.smiles>
CCOc1cc(Cc2cnc(N)nc2N)cc(OC(C)C)c1-c1ccc(O)cc1

>  <experimental.result>
860

$$$$

* * *

- target.or.system: purified DHFR of strain 157/4696 of Staphylococcus aureus (Staphylococcus aureus)
- protocol.details: biochemical
pIC50: −log10 of the molar value.

>  <molecule>
CCOc1cc(Cc2cnc(N)nc2N)cc(OCC)c1-c1ccc(S(N)(=O)=O)cc1

>  <pIC50>
5.89

$$$$
>  <molecule>
CCOc1cc(Cc2cnc(N)nc2N)cc(OCCC2CCOCC2)c1-c1cccc(N)c1

>  <pIC50>
5.89

$$$$
>  <molecule>
CCOc1cc(Cc2cnc(N)nc2N)cc(OCC)c1-c1cccs1

>  <pIC50>
6.15

$$$$
>  <molecule>
CCOc1cc(Cc2cnc(N)nc2N)cc(OS(=O)(=O)C(C)C)c1-c1ccc2c(c1)OCO2

>  <pIC50>
6.74

$$$$
>  <molecule>
CCOc1cc(Cc2cnc(N)nc2N)cc(OS(=O)(=O)C2CCC2)c1-c1cc(N)cc(F)c1

>  <pIC50>
6.80

$$$$
>  <molecule>
CCOc1cc(Cc2cnc(N)nc2N)cc(OCC2(COC)CC2)c1-c1cccc(N)c1

>  <pIC50>
5.66

$$$$
>  <molecule>
CCOc1cc(Cc2cnc(N)nc2N)cc(OS(=O)(=O)C(C)CC)c1-c1cccc(N)c1 (stereo not shown) [Example 14g]

>  <pIC50>
7.52

$$$$
>  <molecule>
CCOc1cc(Cc2cnc(N)nc2N)cc(OS(=O)(=O)CC(C)(C)C)c1-c1ccc(N)cc1

>  <pIC50>
6.24

$$$$
>  <molecule>
CCOc1cc(Cc2cnc(N)nc2N)cc(OCC(F)(F)F)c1-c1cccc(N)c1

>  <pIC50>
6.05

$$$$
>  <molecule>
CCOc1cc(Cc2cnc(N)nc2N)cc(OC2CCCC2COC)c1-c1ccc(O)cc1 (racemic)

>  <pIC50>
5.82

$$$$
>  <molecule>
CCOc1cc(Cc2cnc(N)nc2N)cc(OS(=O)(=O)CC(C)(C)C)c1-c1ccc(OC)c(N)c1

>  <pIC50>
6.59

$$$$
>  <molecule>
CCOc1cc(Cc2cnc(N)nc2N)cc(OCCc2ccccn2)c1-c1cccc(N)c1

>  <pIC50>
6.19

$$$$
>  <molecule>
CCOc1cc(Cc2cnc(N)nc2N)cc(OS(=O)(=O)N(C)C2CC2)c1-c1ccc(NC)cc1

>  <pIC50>
6.85

$$$$
>  <molecule>
CCCS(=O)(=O)Oc1cc(Cc2cnc(N)nc2N)cc(OCC)c1-c1ccc2c(c1)OCO2

>  <pIC50>
6.82

$$$$
>  <molecule>
CCOc1cc(Cc2cnc(N)nc2N)cc(OS(=O)(=O)N2CCCCC2)c1-c1ccc(O)cc1

>  <pIC50>
6.85

$$$$
>  <molecule>
CCOc1cc(Cc2cnc(N)nc2N)cc(OS(=O)(=O)C2CCOCC2)c1-c1cccc(N)c1

>  <pIC50>
7.37

$$$$

* * *

- target.or.system: purified DHFR of strain Sp1/1 of Streptococcus pneumoniae (Streptococcus pneumoniae serotype 4, UniProt Q54801)
- Sequence (Q54801 whole entry I100L, form open): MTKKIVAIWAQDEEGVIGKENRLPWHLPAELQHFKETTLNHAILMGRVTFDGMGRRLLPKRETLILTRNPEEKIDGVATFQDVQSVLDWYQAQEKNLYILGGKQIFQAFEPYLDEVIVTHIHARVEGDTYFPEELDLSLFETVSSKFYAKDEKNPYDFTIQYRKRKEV
- Assay type: biochemical
- condition.context: Table 2; IC50 against purified DHFR of strain Sp1/1
# strict inequality: IC50 < 10 nM yields YES, everything else yields NO

>  <compound>
CCOc1cc(Cc2cnc(N)nc2N)cc(OS(=O)(=O)CC2CCCO2)c1-c1cccc(N)c1 (centres unmarked) [Example 42-a]

>  <class>
YES

$$$$
>  <compound>
CCOc1cc(Cc2cnc(N)nc2N)cc(OCC)c1-c1ccc(CN(C)CCF)c(F)c1 [Example 04-ad]

>  <class>
NO

$$$$
>  <compound>
CCCOc1cc(Cc2cnc(N)nc2N)cc(OCC)c1-c1ccc(OC)cc1 [Example 09-e]

>  <class>
NO

$$$$
>  <compound>
CCOc1cc(Cc2cnc(N)nc2N)cc(OCCc2ccccn2)c1-c1ccc(O)cc1 [Example 08-g]

>  <class>
NO

$$$$
>  <compound>
CCOc1cc(Cc2cnc(N)nc2N)cc(OCC)c1-c1ccc([S+](C)[O-])cc1 (racemic) [Example 02-j]

>  <class>
NO

$$$$
>  <compound>
CCOc1cc(Cc2cnc(N)nc2N)cc(OS(=O)(=O)C2CC2)c1-c1ccc(C)c(N)c1 [Example 34-f]

>  <class>
YES

$$$$
>  <compound>
CCOc1cc(Cc2cnc(N)nc2N)cc(OS(=O)(=O)CC(C)(C)OC)c1-c1ccc(N)c(C)c1 [Example 39-b]

>  <class>
YES

$$$$
>  <compound>
CCOc1cc(Cc2cnc(N)nc2N)cc(OS(=O)(=O)CC(C)C)c1-c1ccc(N)cc1 [Example 36-c]

>  <class>
YES

$$$$

* * *

- target.or.system: purified DHFR of strain 157/4696 of Staphylococcus aureus (Staphylococcus aureus, UniProt P13955)
- protocol.details: biochemical
# strict inequality: IC50 < 80 nM yields Satisfied, everything else yields Not satisfied

>  <compound>
CCOc1cc(Cc2cnc(N)nc2N)cc(OS(=O)(=O)C(C)CC)c1-c1ccc(OCCO)cc1 (centres unmarked)

>  <class>
Not satisfied

$$$$
>  <compound>
CCOc1cc(Cc2cnc(N)nc2N)cc(OS(=O)(=O)N(C)CC)c1-c1ccc(N)cc1

>  <class>
Satisfied

$$$$
>  <compound>
CCOc1cc(Cc2cnc(N)nc2N)cc(OS(=O)(=O)N(C)C)c1-c1cccc(N)c1

>  <class>
Not satisfied

$$$$
>  <compound>
CCOc1cc(Cc2cnc(N)nc2N)cc(OS(=O)(=O)N2CCOCC2)c1-c1cccc(N)c1

>  <class>
Satisfied

$$$$
>  <compound>
CCOc1cc(Cc2cnc(N)nc2N)cc(OS(=O)(=O)C(C)C)c1-c1ccc(CN(C)C)c(N)c1

>  <class>
Satisfied

$$$$
>  <compound>
CCOc1cc(Cc2cnc(N)nc2N)cc(OC2CCC2)c1-c1ccc2c(c1)OCO2

>  <class>
Not satisfied

$$$$
>  <compound>
CCOc1cc(Cc2cnc(N)nc2N)cc(OS(=O)(=O)C2CCC2)c1-c1cccc(N)c1

>  <class>
Satisfied

$$$$
>  <compound>
CCOc1cc(Cc2cnc(N)nc2N)cc(OCCc2scnc2C)c1-c1ccc(O)cc1

>  <class>
Not satisfied

$$$$

Recorded values, source patent US6821980B1.
